Listed binders paired with reported T1/2
Study Target: T1, Human GDF8 homodimer (mature human Growth and Differentiation Factor-8) (human, UniProt O14793 267-375)
T1 construct: also called hGDF8; myostatin
T1 sequence: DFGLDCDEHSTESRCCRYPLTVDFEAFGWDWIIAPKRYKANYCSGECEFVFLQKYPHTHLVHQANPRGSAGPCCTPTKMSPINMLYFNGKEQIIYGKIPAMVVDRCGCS
Test Details: SPR, antibody captured, 25 nM antigen
Field note: include the unit after the figure.

[
  {
    "Binder": "21-E5 (antibody, V domains shown) VH: QVQLVESGPGLVKPSETLSLTCTVYGGSISSGNYYWGWIRQPPGKGLEWIGTIYYSGSAYYNPSLKSRVTMSVDTSKNQFSLKLSSVTAADTAVYYCVRDYYDSSGHYYNWFDPWGQGTTVTVSS VL: AIQMTQSPSSLSASVGDRVTITCRASQDIRHDLGWYQQKPGKAPKRLIYAASSLQSGVPSRFSGSGSGTEFTLTISSLQPEDFATYYCLQHNTYPWTFGQGTKVEIKR",
    "Result": "2.3 h"
  },
  {
    "Binder": "21-A2 (antibody, V domains shown) VH: QVQLVQSGGGLVQPGGSLRLSCAASGFTFNTYAISWVRQAPGKGLEWVSTITGSGYNTYYADSVKGRFTISRDNSKNTLYLQMSSLRAEDTAVFYCAKDSRYNWNYGIFDYWGQGTTVTVSS VL: DIQMTQSPATLSVSPGERATLSCRASQSVSSNLAWYHQKPGQAPRLLIYGVSTRATGIPARFSGNGSGTEFTLTISSLQSEDFAVYYCQQHNNWPLTFGGGTKVEIKR",
    "Result": "1.3 h"
  }
]

Turning now to a further record.
Returns the measured T1/2 for the input binder. Input: 4E3-7 (antibody, V domains shown) VH: EVQLLESGGGLVQPGGSLRLSCVASRFTFSSNAMSWVRQAPGTGLEWVSAITGSGSRTYYADSVKGRFTISRDNSKNTVYLQMNSLRGEDTAVYYCAKDQGGTWNYGDFDYWGQGTLVTVSS VL: EIVMTQSPATLSVSPGERATLSCRASQSVSSNLAWYQQKPGQAPRLLIYGASTRATGLPARFSGSGSGTDFTLTISSLQSEDFAVYYCQQYNNWPLTFGGGTKVEIK
0.45 h
